- System: Mus musculus
- testMethodNotes: Neurotoxicity in mouse assessed as minimum motor impairment at 100 mg/kg, ip after 4 hrs by rotarod test
- Type: toxicity, organism-based
- Design: dose 100 mg/kg, route intraperitoneal
- recordedConditions: in vivo
valueType: Activity

1) Cc1cccc(NC(=S)NC(=O)Nc2ccc3c(c2)C(=O)C(=O)N3Cc2ccccc2Cl)c1    Non-toxic
2) COc1ccc(NC(=S)NC(=O)Nc2ccc3c(c2)C(=O)C(=O)N3Cc2ccccc2Cl)cc1    Non-toxic
3) Cc1ccccc1NC(=S)NC(=O)Nc1ccc2c(c1)C(=O)C(=O)N2Cc1ccccc1Cl    Non-toxic
4) Cc1ccccc1NC(=S)NC(=O)Nc1ccc2c(c1)C(=O)C(=O)N2Cc1ccccc1    Non-toxic
5) O=C(NC(=S)Nc1ccccc1Cl)Nc1ccc2c(c1)C(=O)C(=O)N2Cc1ccccc1    Non-toxic
